For reference, the following Ki results for Adenosine receptor A2a (Homo sapiens) were taken from various sources.
Observable: Ki (nM)

COc1ccccc1-n1cc2nc(-c3ccco3)nc(N)c2n1 | 362
CC(C)Nc1nc(NC(=O)c2ccccc2)n2nc(-c3ccco3)nc2n1 | 2150

A = COc1ccc(-c2nc3c4cn(CCc5ccccc5)nc4nc(N)n3n2)cc1
B = COCCCn1c(=O)n(C)c(=O)c2[nH]c(-c3ccc(OCC(=O)NC4CCCC4)cc3)cc21
Ask: Of the two listed items, which has the higher Ki? First: A Second: B Reply briefly: the label of your chosen item.
Result: A
(A: 1400 nM, B: 427 nM)

###

From various publications: Ki for Adenosine receptor A2a (Homo sapiens, UniProt P29274).
Observable: Ki (nM)

Field: example entries. Status: answers known.
CC(C)(C)c1cc(-c2cn3c(=O)n(-c4ccccc4)nc3c(N)n2)ccc1O | 8.5
CCOC(=O)COc1ccc(CCCn2ncc3c2nc(N)n2nc(-c4ccco4)nc32)cc1 | 0.43
c1ccc(-c2ncnc3ccccc23)cc1 | 2300
COC(=O)CN(C(C)=O)c1ccc(OC)c2nc(NC(=O)c3ccc(F)cc3)sc12 | 5

P = CNC(=O)c1cnc(NC(=O)Nc2ccccc2)n2nc(-c3ccco3)nc12
Q = O=C(Nc1nnc(-c2ccccc2)[nH]1)c1ccccc1
Ask: Identify the entry with the smaller Ki: P or Q . Your answer should be the label attached to the chosen record.
Result: P
(P: 5.76 nM, Q: 400 nM)

###

Reported Ki against Adenosine receptor A2a (Homo sapiens), gathered from multiple publications, appears below.
Sequence (P29274 whole entry): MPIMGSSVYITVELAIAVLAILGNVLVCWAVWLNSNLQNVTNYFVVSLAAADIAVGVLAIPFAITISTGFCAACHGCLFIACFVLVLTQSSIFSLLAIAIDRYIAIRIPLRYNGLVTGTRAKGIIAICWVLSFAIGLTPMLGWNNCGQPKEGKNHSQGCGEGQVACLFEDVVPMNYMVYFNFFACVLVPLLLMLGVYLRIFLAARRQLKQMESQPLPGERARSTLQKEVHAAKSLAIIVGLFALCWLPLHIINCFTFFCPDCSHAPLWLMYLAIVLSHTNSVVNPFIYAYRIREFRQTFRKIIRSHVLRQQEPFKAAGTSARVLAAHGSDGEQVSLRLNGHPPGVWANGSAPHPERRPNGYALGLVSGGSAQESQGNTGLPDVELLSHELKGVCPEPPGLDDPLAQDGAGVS
Observable: Ki (nM)

The cases that follow already have their Ki on record.
CCn1c(=O)c2[nH]c(-c3ccc(OCC(=O)Nc4ccccc4)cc3)nc2n(CCCOC)c1=O | 87.1
Nc1cccc(CNC(=O)c2cc(-c3ccco3)nc(N)n2)n1 | 7
O=C(Nc1nc(Cl)c2cn(CCc3ccccc3)nc2n1)c1ccc(F)cc1 | 2060
CCn1c(=O)c2c(nc3ccccn32)n(Cc2ccccc2)c1=O | 584
COc1cc(OCC(=O)NCc2ccc(Cl)cc2)ccc1-c1cc2c([nH]1)c(=O)n(C)c(=O)n2C | 186

I = CC(C)(C)Cn1cc2c(Cl)nc(NC(=O)c3ccccc3)nc2n1
II = Nc1nc(-c2ccc(OCCNCCc3ccc(S(N)(=O)=O)cc3)cc2)cn2c(=O)n(-c3ccccc3)nc12
III = CCN(C(C)=O)c1ccc(OC)c2nc(NC(=O)c3ccc(C(=O)N(C)CCOC)cc3)sc12
IV = Nc1nc2c(cnn2CCN2CCC(c3ccc(C(=O)NO)cc3)CC2)c2nc(-c3ccco3)nn12
Ask: Provide the items ranked by increasing Ki. Dear reader, please state the labels in the requested order.
Result: IV, III, II, I

P = O=C(O)[C@H]1CC[C@@H](OC2CCN(c3ccc(-c4nc5cc(C(F)(F)F)ccc5[nH]4)cn3)CC2)CC1
Q = CCC(CC)C(=O)Nc1cc(-c2ccc3c(c2)OCO3)nc(-c2ccccc2)n1
Ask: Between P and Q , whose recorded Ki is greater? Refer to your chosen item by its label in the answer.
Result: P
(P: 8000 nM, Q: 574 nM)

I = CCOC(=O)C1=C(C)Nc2nc3ccccc3n2C1c1nccs1 (racemic)
II = Cc1cc(C)n(-c2cc(NC(=O)Cc3cc(F)cc(F)c3)nc(-c3ccc(C)o3)n2)n1
Ask: Please indicate which entry, I or II , has the lower recorded Ki value. Kindly give the label for the entry you pick.
Result: I
(I: 3 nM, II: 5 nM)

1 = Nc1nc(NCCc2ccc(/C=C/C(=O)NO)cc2)nc2nc(-c3ccco3)nn12
2 = CCOC(=O)C(CC(C)C)Nc1nc2nn(C)cc2c2nc(-c3ccco3)nn12 (racemic)
3 = CN(CCc1ccc(F)cc1)c1cc2nc(-c3ccco3)nn2c(N)n1
4 = c1ccc(Nc2nc3ccccc3n3nc(-c4ccco4)nc23)cc1
5 = CCn1c(=O)c2[nH]c(-c3ccc(OCC(=O)Nc4ccc(C(C)=O)cc4)cc3)nc2n(CCCOC)c1=O
Ask: Highest Ki first, then in falling order down to the smallest. Answer format: list of labels, ordered as asked.
Result: 2, 5, 4, 1, 3

###

This section presents Ki values reported for Adenosine receptor A2a (Homo sapiens) in the literature.
Observable: Ki (nM)

CCc1nc(-c2nc(C)cs2)c2sccc2n1 | 2.1

P = Nc1nc(C(=O)NCc2cccc3cccnc23)c2ccccc2n1
Q = COc1cccc(-c2cc(NC(C)=O)nc(-n3nc(C)cc3C)n2)c1F
R = COc1ccc(-c2cn3c(=O)n(-c4ccccc4)nc3c(N)n2)c(OC)c1
S = CC(Cc1ccccc1)Nc1nc(N)c2ncn([C@@H]3O[C@H](CO)[C@@H](O)[C@H]3O)c2n1 (stereo partly drawn)
T = CCCn1c(=O)c2[nH]c(Cc3ccccc3)nc2n(Cc2ccco2)c1=O
Ask: Your job: order these 5 records by Ki, ascending. Please, when replying, give the labels in the order that was requested.
Result: Q, P, R, S, T

###

Below: compounds with pKi recorded for Adenosine receptor A2a (Homo sapiens, UniProt P29274) in separate published works.
pKi: −log10 of the molar value.
Observable: pKi

Cc1cc(C)n(-c2nc(Nc3cnccn3)cc(-n3cccn3)n2)n1 | 7.37
Nc1nc2c(cnn2CCCc2ccc(O)cc2)c2nc(-c3ccco3)nn12 | 7.32

I = Cc1ccc(-c2nc(NC(=O)CN3CCN(C)CC3)cc(-c3nccs3)n2)o1
II = Nc1nc(OCCc2c[nH]c3cc(Cl)ccc23)nc2c1ncn2[C@@H]1O[C@H](CO)[C@@H](O)[C@H]1O
Ask: Which has the smaller recorded pKi, I or II ? State the label of the item chosen.
Result: I

P = CCn1cc2c(nc(NC(=O)Cc3cccc4ccccc34)n3nc(-c4ccco4)nc23)n1
Q = Cc1ccc(-c2nc(N)nc3c2cnn3Cc2cccc(OCCCCC(=O)NO)c2)o1
R = CN(C)c1nc(N)nc(-c2sc(NC(=O)c3ccccc3)nc2-c2ccccc2)n1
S = O=c1oc2c(O)cccc2cc1-c1cccs1
T = O=c1c(-c2ccco2)nnc2n(-c3ccccc3)c3ccccc3n12
Ask: Ascending by pKi, please. A complete answer lists every label in the requested sequence.
Result: S, T, R, P, Q

P = O=C(Nc1nc2cccc(Cl)c2[nH]1)c1ccccc1
Q = Cn1cc2c(nc(NC(=O)Nc3ccc[n+](C)c3)n3nc(-c4ccco4)nc23)n1
Ask: Which of the two gives a bigger number for pKi: P or Q ? Indicate which entry you chose by stating its label.
Result: Q

a = CCCn1c(=O)c2[nH]c(-c3ccc(OCC(=O)Nc4ccc(C(C)(C)C)cc4)cc3)cc2n(CCC)c1=O
b = Cn1c(=O)c2[nH]c(-c3ccc(OCC(=O)N4CCN(c5cccc(Cl)c5)CC4)cc3)cc2n(C)c1=O
c = CCN(CCO)c1nc2nn(C)cc2c2nc(-c3ccco3)nn12
d = Nc1nc(NCCc2ccc(OCCCC(=O)NO)cc2)nc2nc(-c3ccco3)nn12
Ask: Rank items: key pKi, increasing. Answer by naming the labels in the order asked.
Result: c, b, a, d

###

Listing of Ki toward Adenosine receptor A2a (Homo sapiens, UniProt P29274), each taken from a published source.
Observable: Ki (nM)

Completed entries (count: 3):
CCCn1c(=O)c2[nH]c(-c3ccc(OCC(=O)Nc4ccc(C5=NC(C)(C)CO5)cc4)cc3)cc2n(CCC)c1=O | 91.2
Cn1c(=O)c2[nH]c(-c3ccccc3)c(O)c2n(C)c1=O | 1470
CCCn1c(=O)c2[nH]c(-c3ccc(N(C=O)CC(=O)Nc4ccc(Br)cc4)cc3)cc2n(CCC)c1=O | 35.5

P = Cn1c(=O)c2[nH]c(-c3cccc(OCC(=O)Nc4ccc(Br)cc4)c3)cc2n(C)c1=O
Q = CCOC(=O)COc1ccc(-c2cc3c([nH]2)c(=O)n(C)c(=O)n3C)cc1OC
R = CCCn1c(=O)c2[nH]c(-c3ccc(OCC(=O)Nc4ccc(Br)cc4)cc3)c(O)c2n(CCC)c1=O
S = CCCn1c(=O)c2[nH]c(-c3ccc(OCC(=O)Nc4ccc(I)cc4)cc3)cc2n(CCC)c1=O
Ask: Rank the items in ascending order with respect to Ki. Your reply should list the labels following the order given in the request.
Result: P, R, S, Q

1 = CCCCC(CC)CNc1nc2nn(C)cc2c2nc(-c3ccco3)nn12 (stereo not given)
2 = Cn1c(=O)c2[nH]c(-c3ccc(OCC(=O)N4CCN(c5ccc(F)cc5)CC4)cc3)cc2n(C)c1=O
3 = CCCn1ncc2nc(N)n3nc(-c4ccco4)nc3c21
4 = Nc1nc2c(cnn2CCCCCC(=O)NO)c2nc(-c3ccco3)nn12
Ask: List from greatest to least Ki. To answer, write out the labels according to the requested order.
Result: 1, 2, 4, 3

P = Cc1ccc(-c2nc(N)nc3c2cnn3CCCCCCCC(=O)NO)o1
Q = CN1CCN(CC(=O)Nc2cc(-n3cccn3)nc(-c3ccco3)n2)CC1
R = Nc1nc2cn(CCCc3ccccc3)nc2c2nc(-c3ccco3)nn12
S = Cn1c(=O)c2[nH]c(-c3ccc(OCC(=O)N4CCN(c5nc6cc(Cl)ccc6s5)CC4)cc3)cc2n(C)c1=O
Ask: Order by Ki, ascending. To answer, write out the labels according to the requested order.
Result: Q, R, S, P
(Q: 3 nM, R: 11 nM, S: 182 nM, P: 585 nM)

a = N#Cc1cccc(-c2nc(N)nc3ccccc23)c1
b = Cc1ccc(-c2nc(N)nc3c2cnn3CCc2ccc(C(=O)NO)cc2)o1
Ask: Could you point out whether the larger Ki belongs to a or to b ? Answer format: the label of the selected item.
Result: a
(a: 586 nM, b: 295 nM)
